- Tested on: EKVX
- Protocol notes: relative viability (nuclei count vs DMSO), 5 days (fraction); higher = more cells survive
- Test settings: first compound 0.002 µM
Metric: relative viability
In your answer, state the number alone without any accompanying words.

// below: answered compounds
CCNC(=O)c1noc(-c2cc(C(C)C)c(O)cc2O)c1-c1ccc(CN2CCOCC2)cc1 [Luminespib] + Cc1cc(Nc2cc(N3CCN(C)CC3)nc(Sc3ccc(NC(=O)C4CC4)cc3)n2)n[nH]1 [Tozasertib] (partner 0.1 µM) : 0.436
CCNC(=O)c1noc(-c2cc(C(C)C)c(O)cc2O)c1-c1ccc(CN2CCOCC2)cc1 [Luminespib] + CC(=O)Nc1cccc(-n2c(=O)n(C3CC3)c(=O)c3c(Nc4ccc(I)cc4F)n(C)c(=O)c(C)c32)c1 [Trametinib] (partner 0.02 µM) : 0.391
CCNC(=O)c1noc(-c2cc(C(C)C)c(O)cc2O)c1-c1ccc(CN2CCOCC2)cc1 [Luminespib] + CS(=O)(=O)N1CCN(Cc2cc3nc(-c4cccc5[nH]ncc45)nc(N4CCOCC4)c3s2)CC1 [Pictilisib] (partner 1 µM) : 0.392

Below: the item to evaluate.
Reported relative viability for CCNC(=O)c1noc(-c2cc(C(C)C)c(O)cc2O)c1-c1ccc(CN2CCOCC2)cc1 [Luminespib] + NC(=O)Nc1cc(-c2cccc(F)c2)sc1C(=O)N[C@H]1CCCNC1 [AZD7762] (partner 0.2 µM) was 0.669

###

- Test system: H3255
- Protocol notes: relative viability (nuclei count vs DMSO), 5 days (fraction); higher = more cells survive
- Test settings: first compound 0.8 µM
hey, just use satisfied if measured relative viability is less than 0.6, otherwise not satisfied

Nc1cccc2c1CN(C1CCC(=O)NC1=O)C2=O (stereo not given) [Lenalidomide] + COc1cc2c(Oc3ccc(NC(=O)C4(C(=O)Nc5ccc(F)cc5)CC4)cc3F)ccnc2cc1OCCCN1CCOCC1 [Foretinib] (partner 0.25 µM) : not satisfied
Nc1cccc2c1CN(C1CCC(=O)NC1=O)C2=O (stereo not given) [Lenalidomide] + Nc1ncn([C@H]2C[C@H](O)[C@@H](CO)O2)c(=O)n1 [Decitabine] (partner 2 µM) : satisfied
Nc1cccc2c1CN(C1CCC(=O)NC1=O)C2=O (stereo not given) [Lenalidomide] + CS(=O)(=O)N1CCN(Cc2cc3nc(-c4cccc5[nH]ncc45)nc(N4CCOCC4)c3s2)CC1 [Pictilisib] (partner 1 µM) : satisfied
Nc1cccc2c1CN(C1CCC(=O)NC1=O)C2=O (stereo not given) [Lenalidomide] + NC(=O)Nc1cc(-c2cccc(F)c2)sc1C(=O)N[C@H]1CCCNC1 [AZD7762] (partner 0.2 µM) : not satisfied

# input for lookup
Query: Find out if reported relative viability for Nc1cccc2c1CN(C1CCC(=O)NC1=O)C2=O (stereo not given) [Lenalidomide] + CCNC(=O)c1noc(-c2cc(C(C)C)c(O)cc2O)c1-c1ccc(CN2CCOCC2)cc1 [Luminespib] (partner 0.01 µM) is less than 0.6
Response: not satisfied

###

- Test system: HCC-78
- Protocol notes: relative viability (nuclei count vs DMSO), 5 days (fraction); higher = more cells survive
- Test settings: first compound 2.53 µM
hey, just use MET if measured relative viability is less than 0.4, otherwise NOT MET

Consider the worked cases shown below.
Nc1cccc2c1CN(C1CCC(=O)NC1=O)C2=O (stereo unspecified) [Lenalidomide] + Cc1nc(NC(=O)N2CCC[C@H]2C(N)=O)sc1-c1ccnc(C(C)(C)C(F)(F)F)c1 [Alpelisib] (partner 2 µM) : MET
Nc1cccc2c1CN(C1CCC(=O)NC1=O)C2=O (stereo unspecified) [Lenalidomide] + C[C@]1(O)C[C@@H](c2nc(-c3ccc4ccc(-c5ccccc5)nc4c3)c3c(N)nccn32)C1 [Linsitinib] (partner 1 µM) : NOT MET
Nc1cccc2c1CN(C1CCC(=O)NC1=O)C2=O (stereo unspecified) [Lenalidomide] + C[C@@H](Oc1cc(-c2cnn(C3CCNCC3)c2)cnc1N)c1c(Cl)ccc(F)c1Cl [Crizotinib] (partner 1 µM) : MET
Nc1cccc2c1CN(C1CCC(=O)NC1=O)C2=O (stereo unspecified) [Lenalidomide] + NC(=O)Nc1cc(-c2cccc(F)c2)sc1C(=O)N[C@H]1CCCNC1 [AZD7762] (partner 0.2 µM) : NOT MET
Nc1cccc2c1CN(C1CCC(=O)NC1=O)C2=O (stereo unspecified) [Lenalidomide] + N=C(N)NC(=N)NCCc1ccccc1 [Phenformin] (partner 250 µM) : NOT MET

Query: Find out if reported relative viability for Nc1cccc2c1CN(C1CCC(=O)NC1=O)C2=O (stereo unspecified) [Lenalidomide] + CS(=O)(=O)CCNCc1ccc(-c2ccc3ncnc(Nc4ccc(OCc5cccc(F)c5)c(Cl)c4)c3c2)o1 [Lapatinib] (partner 2 µM) is less than 0.4
Response: MET

###

Items are presented alongside their recorded relative viability.
- Test system: NCI-H1437
- Protocol notes: relative viability (nuclei count vs DMSO), 5 days (fraction); higher = more cells survive
- Test settings: first compound 0.8 µM
In your answer, state the number alone without any accompanying words.

// below: answered molecules
Nc1cccc2c1CN(C1CCC(=O)NC1=O)C2=O (stereo not given) [Lenalidomide] + Cc1cc(Nc2cc(N3CCN(C)CC3)nc(Sc3ccc(NC(=O)C4CC4)cc3)n2)n[nH]1 [Tozasertib] (partner 0.1 µM) : 0.443
Nc1cccc2c1CN(C1CCC(=O)NC1=O)C2=O (stereo not given) [Lenalidomide] + CS(=O)(=O)CCNCc1ccc(-c2ccc3ncnc(Nc4ccc(OCc5cccc(F)c5)c(Cl)c4)c3c2)o1 [Lapatinib] (partner 2 µM) : 0.758
Nc1cccc2c1CN(C1CCC(=O)NC1=O)C2=O (stereo not given) [Lenalidomide] + Cc1nc(Nc2ncc(C(=O)Nc3c(C)cccc3Cl)s2)cc(N2CCN(CCO)CC2)n1 [Dasatinib] (partner 0.075 µM) : 0.45
Nc1cccc2c1CN(C1CCC(=O)NC1=O)C2=O (stereo not given) [Lenalidomide] + Cc1nc(NC(=O)N2CCC[C@H]2C(N)=O)sc1-c1ccnc(C(C)(C)C(F)(F)F)c1 [Alpelisib] (partner 2 µM) : 1.03

Below: the item to evaluate.
NCI-H1437 assay, molecule Nc1cccc2c1CN(C1CCC(=O)NC1=O)C2=O (stereo not given) [Lenalidomide] + CC(=O)Nc1cccc(-n2c(=O)n(C3CC3)c(=O)c3c(Nc4ccc(I)cc4F)n(C)c(=O)c(C)c32)c1 [Trametinib] (partner 0.02 µM) , recorded relative viability = 0.365

###

- System: PC-3 [JPC-3]
- Protocol notes: relative viability (nuclei count vs DMSO), 5 days (fraction); higher = more cells survive
- Test settings: first compound 20 µM
Metric: relative viability

// below: answered molecules
Cc1csc(=NC2CCCCC2)n1/N=C/c1ccc(O)c(O)c1O [MIM1] + CC(=O)Nc1cccc(-n2c(=O)n(C3CC3)c(=O)c3c(Nc4ccc(I)cc4F)n(C)c(=O)c(C)c32)c1 [Trametinib] (partner 0.02 µM) : 0.558
Cc1csc(=NC2CCCCC2)n1/N=C/c1ccc(O)c(O)c1O [MIM1] + O=C(c1cc(Cc2n[nH]c(=O)c3ccccc23)ccc1F)N1CCN(C(=O)C2CC2)CC1 [Olaparib] (partner 8 µM) : 0.504
Cc1csc(=NC2CCCCC2)n1/N=C/c1ccc(O)c(O)c1O [MIM1] + C[C@@H](Oc1cc(-c2cnn(C3CCNCC3)c2)cnc1N)c1c(Cl)ccc(F)c1Cl [Crizotinib] (partner 1 µM) : 0.451
Cc1csc(=NC2CCCCC2)n1/N=C/c1ccc(O)c(O)c1O [MIM1] + Cc1cc(Nc2cc(N3CCN(C)CC3)nc(Sc3ccc(NC(=O)C4CC4)cc3)n2)n[nH]1 [Tozasertib] (partner 0.1 µM) : 0.574

Reported relative viability for Cc1csc(=NC2CCCCC2)n1/N=C/c1ccc(O)c(O)c1O [MIM1] + CS(=O)(=O)N1CCN(Cc2cc3nc(-c4cccc5[nH]ncc45)nc(N4CCOCC4)c3s2)CC1 [Pictilisib] (partner 1 µM) was 0.459

###

- Test system: NCI-H2085
- Protocol notes: relative viability (nuclei count vs DMSO), 5 days (fraction); higher = more cells survive
- Test settings: first compound 2.53 µM
Metric: relative viability
In your answer, state the number alone without any accompanying words.

Reported relative viability for Nc1cccc2c1CN(C1CCC(=O)NC1=O)C2=O (centres undefined) [Lenalidomide] + NC(=O)Nc1cc(-c2cccc(F)c2)sc1C(=O)N[C@H]1CCCNC1 [AZD7762] (partner 0.2 µM) was 0.982

Reported relative viability for Nc1cccc2c1CN(C1CCC(=O)NC1=O)C2=O (centres undefined) [Lenalidomide] + O=C(c1cc(Cc2n[nH]c(=O)c3ccccc23)ccc1F)N1CCN(C(=O)C2CC2)CC1 [Olaparib] (partner 8 µM) was 0.841

Reported relative viability for Nc1cccc2c1CN(C1CCC(=O)NC1=O)C2=O (centres undefined) [Lenalidomide] + CS(=O)(=O)N1CCN(Cc2cc3nc(-c4cccc5[nH]ncc45)nc(N4CCOCC4)c3s2)CC1 [Pictilisib] (partner 1 µM) was 0.428

Reported relative viability for Nc1cccc2c1CN(C1CCC(=O)NC1=O)C2=O (centres undefined) [Lenalidomide] + COc1cccc2cc(-c3nc([C@H]4CC[C@H](C(=O)O)CC4)n4ncnc(N)c34)[nH]c12 [OSI-027] (partner 0.5 µM) was 0.879
